src = patent US6399654B1

- protocol-description: in vitro
- condition-description: dog, CPE Inhibition IC50 (50% cell inhibitory (cytotoxic) concentration), Influenza A (H1N1) test
As shown below, each of these compounds has a reported IC50 value.
The answer is to be given in µg/mL; state only the numeric part.

* O=C1CC(c2ccc(O)cc2)Oc2cc(O)c(-c3c(O)cc4c(c3O)C(=O)CC(c3ccc(O)cc3)O4)c(O)c21 (stereo not drawn) | 4.9
* O=c1cc(-c2ccc(Oc3c(O)cc4oc(-c5ccc(O)cc5)cc(=O)c4c3O)cc2)oc2cc(O)cc(O)c12 | 1.4

# evaluate next
Recorded result, O=C1CC(c2ccc(O)cc2)Oc2cc(O)c(-c3c(O)cc(O)c4c3OC(c3ccc(O)cc3)CC4=O)c(O)c21 (stereo not drawn) , IC50: 8.2

* * *

As shown below, each of these compounds has a reported EC50 value.
- System: Influenza A (H1N1) Texas/36/91
- protocol-description: microbe, parasite or virus in culture
- Format: cell-based, influenza A virus
- condition-description: Influenza A virus, MDCK; Influenza A (H1N1) Texas/36/91; read-out: CPE Inhibition EC50

- O=c1cc(-c2ccc(O)c(-c3c(O)cc4oc(-c5ccc(O)cc5)cc(=O)c4c3O)c2)oc2cc(O)cc(O)c12: 1.9 µg/mL
- COc1ccc(-c2cc(=O)c3c(OC)cc(OC)c(C4C(=O)c5c(OC)cc(OC)cc5OC4c4ccc(OC)cc4)c3o2)cc1 (stereo not drawn): ~100 µg/mL
- O=c1cc(-c2ccc(Oc3c(O)cc4oc(-c5ccc(O)cc5)cc(=O)c4c3O)cc2)oc2cc(O)cc(O)c12: > 1 µg/mL
- O=C1CC(c2ccc(O)cc2)Oc2cc(O)c(-c3c(O)cc4c(c3O)C(=O)CC(c3ccc(O)cc3)O4)c(O)c21 (stereo not drawn): > 3.2 µg/mL
- O=c1cc(-c2ccc(O)c(-c3c(O)cc(O)c4c(=O)cc(-c5ccc(O)cc5)oc34)c2)oc2cc(O)cc(O)c12: 3.1 µg/mL

# evaluate next
Recorded result, O=C1CC(c2ccc(O)cc2)Oc2cc(O)c(-c3c(O)cc(O)c4c3OC(c3ccc(O)cc3)CC4=O)c(O)c21 (stereo not drawn) , EC50: > 10 µg/mL

* * *

- target-system: HIV-1 RT (Human immunodeficiency virus type 1 group M subtype B)
- Construct: made in house; host or cells: Escherichia coli
- protocol-description: Anti-HIV-1 RT assay (recombinant enzyme)
- Type: biochemical
- condition-description: HIV-1 RT IC50 (50% inhibition dose)
As shown below, each of these compounds has a reported pIC50 value.
// pIC50: -log10(molar conc.)

These solved cases illustrate the format of a correct answer.
- O=c1cc(-c2ccc(OS(=O)(=O)O)c(-c3c(OS(=O)(=O)O)cc4oc(-c5ccc(OS(=O)(=O)O)cc5)cc(=O)c4c3O)c2)oc2cc(OS(=O)(=O)O)cc(O)c12 [Robustaflavone tetrasulfate (17)]: 3.77
- O=C1CC(c2ccc(O)cc2)Oc2c1c(O)cc(O)c2C1C(=O)c2c(O)cc(O)cc2OC1c1ccc(O)cc1 (centres unmarked): 3.63

Recorded result, O=c1cc(-c2ccc(O)c(-c3c(O)cc(O)c4c(=O)cc(-c5ccc(O)cc5)oc34)c2)oc2cc(O)cc(O)c12 , pIC50: 3.92

Recorded result, COc1cccc2c1C(=O)c1c(O)c3c(c(O)c1C2=O)C[C@@](O)(C(C)=O)C[C@@H]3O[C@H]1C[C@H](N)[C@H](O)[C@H](C)O1 [daunomycin, reference compound] , pIC50: 3.63

Recorded result, O=C1c2c(O)cc(O)cc2O[C@H](c2ccc(O)cc2)[C@H]1c1c(O)cc(O)c2c(=O)cc(-c3ccc(O)c(O)c3)oc12 , pIC50: 3.93

* * *

- Test system: Measles Virus
- protocol-description: microbe, parasite or virus in culture
- Assay type: cell-based
- condition-description: Measles morbillivirus, BSC-1; Measles Virus; read-out: CPI Inhibition EC50
readout: EC50

These solved cases illustrate the format of a correct answer.
• O=C1CC(c2ccc(O)cc2)Oc2cc(O)c(-c3c(O)cc4c(c3O)C(=O)CC(c3ccc(O)cc3)O4)c(O)c21 (stereo not drawn) [Succedaneaflavanone (11), succedaneaflavanone] = ~32 µg/mL
• O=c1cc(-c2ccc(Oc3c(O)cc4oc(-c5ccc(O)cc5)cc(=O)c4c3O)cc2)oc2cc(O)cc(O)c12 [Hinokiflavone (4), hinokiflavone] = < 3 µg/mL
• O=C1CC(c2ccc(O)cc2)Oc2cc(O)c(-c3c(O)cc(O)c4c3OC(c3ccc(O)cc3)CC4=O)c(O)c21 (stereo not drawn) [Rhusflavanone (9), rhusflavanone] = 14 µg/mL
• O=c1cc(-c2ccc(O)c(-c3c(O)cc4oc(-c5ccc(O)cc5)cc(=O)c4c3O)c2)oc2cc(O)cc(O)c12 [Robustaflavone (3), robustaflavone] = < 14 µg/mL
• COc1ccc(-c2cc(=O)c3c(OC)cc(OC)c(C4C(=O)c5c(OC)cc(OC)cc5OC4c4ccc(OC)cc4)c3o2)cc1 (stereo not drawn) [Volkensiflavone hexamethyl ether (6), volkensiflavone hexamethyl ether] = < 70 µg/mL

# evaluate next
Recorded result, O=c1cc(-c2ccc(O)c(-c3c(O)cc(O)c4c(=O)cc(-c5ccc(O)cc5)oc34)c2)oc2cc(O)cc(O)c12 [Amentoflavone (1), amentoflavone] , EC50: < 40 µg/mL

* * *

- protocol-description: in vitro
- condition-description: African green monkey, CPI Inhibition IC50 (cytotoxic)
readout: IC50 (µg/mL)
The answer is to be given in µg/mL; state only the numeric part.

Recorded result, NC(=O)c1ncn([C@@H]2O[C@H](CO)[C@@H](O)[C@H]2O)n1 [Ribavirin, ribavirin, reference compound] , IC50: 245

* * *

- protocol-description: in vitro
- condition-description: African green monkey
readout: IC50

* NC(=O)c1ncn([C@@H]2O[C@H](CO)[C@@H](O)[C@H]2O)n1 [Ribavirin, ribavirin, reference compound] | 150 mg/L
* O=c1cc(-c2ccc(O)c(-c3c(O)cc4oc(-c5ccc(O)cc5)cc(=O)c4c3O)c2)oc2cc(O)cc(O)c12 | < 14 mg/L
* O=C1CC(c2ccc(O)cc2)Oc2cc(O)c(-c3c(O)cc(O)c4c3OC(c3ccc(O)cc3)CC4=O)c(O)c21 (centres unmarked) | 21 mg/L
* O=C1CC(c2ccc(O)cc2)Oc2cc(O)c(-c3c(O)cc4c(c3O)C(=O)CC(c3ccc(O)cc3)O4)c(O)c21 (centres unmarked) | < 23 mg/L

# evaluate next
Recorded result, COc1ccc(-c2cc(=O)c3c(OC)cc(OC)c(C4C(=O)c5c(OC)cc(OC)cc5OC4c4ccc(OC)cc4)c3o2)cc1 (centres unmarked) , IC50: < 60 mg/L

* * *

- protocol-description: in vitro
- condition-description: dog, Neutral Red IC50 (cytotoxic), Influenza A (H3N2) test
readout: IC50 (µg/mL)
The answer is to be given in µg/mL; state only the numeric part.

* O=C1CC(c2ccc(O)cc2)Oc2cc(O)c(-c3c(O)cc(O)c4c3OC(c3ccc(O)cc3)CC4=O)c(O)c21 (stereo not drawn) [Rhusflavanone (9), rhusflavanone] | 31

# evaluate next
Recorded result, O=c1cc(-c2ccc(Oc3c(O)cc4oc(-c5ccc(O)cc5)cc(=O)c4c3O)cc2)oc2cc(O)cc(O)c12 [Hinokiflavone (4), hinokiflavone] , IC50: 2.2

* * *

- target-system: HIV-1 RT (Human immunodeficiency virus type 1 group M subtype B, UniProt P03366)
- Construct: made in house; host or cells: Escherichia coli
- protocol-description: Anti-HIV-1 RT assay (recombinant enzyme)
- Type: biochemical
- condition-description: Anti-HIV-1 RT IC50, values in parentheses or in words
We label by threshold. Values of IC50 strictly beneath 100 µM are yes. Values of 100 µM and up are no.

- O=c1cc(-c2ccc(Oc3c(O)cc4oc(-c5ccc(O)cc5)cc(=O)c4c3O)cc2)oc2cc(O)cc(O)c12: yes
- O=c1cc(-c2ccc(O)c(-c3c(O)cc(O)c4c(=O)cc(-c5ccc(O)cc5)oc34)c2)oc2cc(O)cc(O)c12: no
- O=c1cc(-c2ccc(O)c(-c3c(O)cc4oc(-c5ccc(O)cc5)cc(=O)c4c3O)c2)oc2cc(O)cc(O)c12: yes
- O=c1cc(-c2ccc(O)cc2)oc2cc(O)cc(O)c12 [Apigeriin, 4′,5,7-trihydroxyflavone, reference compound]: no
- O=C1c2c(O)cc(O)cc2O[C@H](c2ccc(O)cc2)[C@H]1c1c(O)cc(O)c2c(=O)cc(-c3ccc(O)c(O)c3)oc12: no

Inquiry: Field: below-cutoff. Rule: recorded IC50 strictly less than 100 µM. Subject: O=C1CC(c2ccc(O)cc2)Oc2c1c(O)cc(O)c2C1C(=O)c2c(O)cc(O)cc2OC1c1ccc(O)cc1 (stereo not shown)
Reply text: no

Inquiry: Field: below-cutoff. Rule: recorded IC50 strictly less than 100 µM. Subject: O=c1cc(-c2ccc(OS(=O)(=O)O)c(-c3c(OS(=O)(=O)O)cc4oc(-c5ccc(OS(=O)(=O)O)cc5)cc(=O)c4c3O)c2)oc2cc(OS(=O)(=O)O)cc(O)c12 [Robustaflavone tetrasulfate (17)]
Reply text: no
